Give IC50 for every item shown.
# STUDY SYSTEM: guinea pig lung receptors (LTD4 receptor) (Cavia porcellus, UniProt Q2NNR5)
# Construct: guinea pig lung receptors, isolated from guinea pig lung membrane
# Sequence (Q2NNR5 whole entry): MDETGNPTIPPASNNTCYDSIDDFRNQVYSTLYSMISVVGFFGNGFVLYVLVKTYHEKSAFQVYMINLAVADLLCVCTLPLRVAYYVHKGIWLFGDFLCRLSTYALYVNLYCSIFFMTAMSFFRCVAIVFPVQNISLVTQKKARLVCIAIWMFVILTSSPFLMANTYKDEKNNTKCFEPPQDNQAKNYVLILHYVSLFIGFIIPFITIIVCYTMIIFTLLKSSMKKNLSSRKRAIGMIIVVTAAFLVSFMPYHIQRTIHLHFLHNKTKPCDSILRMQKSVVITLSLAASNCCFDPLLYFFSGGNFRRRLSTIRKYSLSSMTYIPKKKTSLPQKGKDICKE
# PROTOCOL TEXT: Leukotriene (LTD4) Receptor Binding Assay
# PARTICULARS: LTD4 Antagonism; guinea pig lung membrane
# Experimental: Leukotriene Receptor Binding Assay (12c01) The in vitro LTD4 receptor binding assay is carried out as follows: Specific binding of titrated LTD4 to a fixed number of guinea pig lung receptors, isolated from guinea pig lung membrane, is measured in the presence and absence of test compound. The initial screening dose (1×10^-5 M is considered active if the specific binding of LTD4 is reduced by 45% or more. Active compounds are tested in a dose-response manner to determine IC50 values.
Answers are plain numbers, in µM.

// worked examples, IC50 included
CCCc1c(OCCCSCC2COC(CCC(=O)O)(CCC(=O)O)S2)ccc(C(C)=O)c1O (stereo not shown)    3.56
CCCc1c(OCCCSCC2CSC(C)(CCC(=O)O)S2)ccc(C(C)=O)c1O (stereo not shown)    9.47
CCCc1c(OCCCSCC2CSC(C)(CCCC(=O)O)S2)ccc(C(C)=O)c1O (stereo not shown)    5.02
CCCc1c(OCCCSCC2COC(C)(CCCC(=O)O)S2)ccc(C(C)=O)c1O (stereo not shown)    7.1
CCCc1c(OCCCSCC2COC(CCC(=O)O)(c3ccccc3)S2)ccc(C(C)=O)c1O (stereo not shown)    6.24

Could I get IC50 for every one of these entries?
1. CCCc1c(OCCCSCC2COC(C)(CCC(=O)O)S2)ccc(C(C)=O)c1O (stereo not shown)
2. CCCc1c(OCCCSCC2CSC(CCC(=O)O)(CCC(=O)O)S2)ccc(C(C)=O)c1O (stereo not shown)

1: 9.37; 2: 0.591
